Biological target: T1, NPY2 receptor (human (printed as hNPY2R), UniProt P49146 1-381)
T1 sequence (looked up): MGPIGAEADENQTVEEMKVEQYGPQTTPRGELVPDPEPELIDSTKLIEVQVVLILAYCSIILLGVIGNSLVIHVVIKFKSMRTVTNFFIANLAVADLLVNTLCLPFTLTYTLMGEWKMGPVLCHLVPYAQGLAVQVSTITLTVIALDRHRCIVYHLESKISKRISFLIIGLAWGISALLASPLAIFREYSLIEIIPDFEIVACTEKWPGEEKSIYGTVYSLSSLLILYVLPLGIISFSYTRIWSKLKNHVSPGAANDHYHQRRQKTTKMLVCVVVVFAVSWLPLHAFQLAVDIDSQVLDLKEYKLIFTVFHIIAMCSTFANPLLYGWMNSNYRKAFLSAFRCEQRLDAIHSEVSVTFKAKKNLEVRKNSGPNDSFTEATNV
Assay: cell-based or functional assay
Starred links: 1 amine or outer side, 2 acyl side, 3 side chain; linkers in the order of their positions; H or OH if unused. Non-standard residues stand in square brackets, D forms with d. Groups on a side chain read outwards from the residue. No end group written: not given here. *: point of attachment. C20 diacid = O=C(O)CCCCCCCCCCCCCCCCCCC(=O)*; C18 diacid = O=C(O)CCCCCCCCCCCCCCCCC(=O)*; γGlu = O=C(O)[C@H](CCC(=O)[*:2])N[*:1]; εLys = N[C@@H](CCCCN[*:1])C(=O)[*:2]; AEEA = NCCOCCOCC(=O)O; Aib = CC(C)(N)C(=O)O

# Binder, Measurement unit, EC50 hNPY2R 100% hP (CreLuc)
records = [
    ("Y[Aib]EGTFTSDYSI[Aib]LEKQAQ[Aib]AFVEWLIK([εLys-γGlu-γGlu-γGlu-γGlu-γGlu-C20 diacid])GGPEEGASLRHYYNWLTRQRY-NH2 (also: TFA salt) [Compound 230]", "nM", 59.1),
    ("YXEGTFTSDYSIXLEKQAQXAFVEWLIKGGPSSGASLRHYYNLLTRQRY (Aib at 2, 13, 20; K28 side chain carries C20DA-gGlu-gGlu-gGlu-gGlu-gGlu-gGlu-eLys; C-terminal amide) [Compound 195]", "nM", 137),
    ("Y[Aib]EGTFTSDYSI[Aib]LEKQAQ[Aib]AFVEWLIK([AEEA-AEEA-γGlu-γGlu-γGlu-γGlu-C18 diacid])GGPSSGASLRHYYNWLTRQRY-NH2 (also: TFA salt) [Compound 254]", "nM", 30.9),
]
